- METHOD_SUMMARY: HepG2 liver cancer cell viability effects, profiling panel, resazurin fluorescence, 24 h, PK04 Diversity Set (AID 1172); also: test concentration not given here
- CONDITIONS: higher = more signal

COMPOUND: C=C(C)C1CCC(C(O)C2C=CC3C(=O)N(C)C(=O)C3N2Nc2cc(OC)c(OC)c(OC)c2)CC1 (configuration not stated)
z-score: -1.15
--
COMPOUND: O=C(O)[C@@H]1C[C@@H]2C(=O)N3CCC[C@H]3C(=O)N2[C@@H]1c1cccc(OCCO)c1
z-score: -0.188
--
COMPOUND: COC(=O)[C@@]1(Cc2ccc(F)cc2)[C@H]2c3cc(C(=O)N4CCCC4)n(C)c3C[C@H]2CN1C(=O)c1ccccc1
z-score: 0.0015
--
COMPOUND: CN1C(=O)C2C=CC(C(O)c3cc(C(F)(F)F)cc(C(F)(F)F)c3)N(NC(=O)OC(C)(C)C)C2C1=O (configuration not stated)
z-score: -0.725
--
COMPOUND: C=CCC(OC(C)=O)[C@@H]1[C@@H](N(Cc2ccc(-c3cccc(C(F)(F)F)c3)o2)C(=O)c2cccc3ccccc23)c2cc(OCCCO)ccc2N1C(=O)Cc1ccc(OC)cc1 (some centres not stated)
z-score: 0.119
--
COMPOUND: COc1cc(NN2C(C(O)c3cc(OC)c(OC)c(OC)c3)C=CC3C(=O)N(c4ccccc4)C(=O)C32)cc(OC)c1OC (configuration not stated)
z-score: -1.95
--
COMPOUND: CC(C)CNC(=O)[C@@H]1c2ccccc2C(=O)N(C2CCCCC2)[C@H]1c1ccc(CO)cc1
z-score: 1.12

---

- TESTED_TARGET: Pro-neuregulin-1, membrane-bound isoform (Homo sapiens) (UniProt Q02297)
- Sequence (Q02297 whole entry, looked up, canonical isoform): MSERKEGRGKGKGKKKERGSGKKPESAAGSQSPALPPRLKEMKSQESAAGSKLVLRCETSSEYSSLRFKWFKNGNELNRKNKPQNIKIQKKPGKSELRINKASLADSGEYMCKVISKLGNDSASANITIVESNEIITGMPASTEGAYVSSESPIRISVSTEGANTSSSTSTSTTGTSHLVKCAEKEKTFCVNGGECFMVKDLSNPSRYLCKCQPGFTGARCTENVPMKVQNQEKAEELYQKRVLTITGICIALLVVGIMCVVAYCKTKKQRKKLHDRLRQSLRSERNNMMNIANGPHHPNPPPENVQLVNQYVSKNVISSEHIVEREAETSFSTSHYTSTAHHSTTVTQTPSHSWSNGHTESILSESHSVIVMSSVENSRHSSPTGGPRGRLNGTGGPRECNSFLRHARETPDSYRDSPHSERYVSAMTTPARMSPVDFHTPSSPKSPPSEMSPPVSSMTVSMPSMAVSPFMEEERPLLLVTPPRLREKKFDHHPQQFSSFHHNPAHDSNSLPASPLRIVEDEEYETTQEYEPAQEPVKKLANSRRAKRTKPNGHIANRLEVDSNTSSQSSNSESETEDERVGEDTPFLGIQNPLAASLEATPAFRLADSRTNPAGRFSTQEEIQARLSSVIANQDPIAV
- METHOD_SUMMARY: NRG1 binders on small-molecule microarrays, primary screen, psychiatric disease protein project, biochemical, small-molecule microarray, fluorescence 635/667 (AID 1075);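 also: score combines 667 nm spot fluorescence with signal to noise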
- CONDITIONS: NRG1 binding, 635 nm fluorescence, higher = more signal
Rule: composite z-score under 0.7 gives N, otherwise Y.

STRUCTURE_SMILES: Cc1cccc([C@H]2C[C@H]3C(Br)=C[C@@H]2C(=O)[C@]32CO2)c1
CLASSIFICATION: N

STRUCTURE_SMILES: COCCOC(=O)N1C(=O)[C@@]2(c3cc(C#Cc4ccc(OC)cc4)ccc31)[C@H](C(=O)NC[C@H](O)c1ccccc1)[C@H]1C(=O)O[C@H](c3ccccc3)[C@H](c3ccccc3)N1[C@@H]2c1ccc(OCCO)cc1
CLASSIFICATION: Y

STRUCTURE_SMILES: C=C(C(=O)CC[C@@H](OC(=O)c1ccccc1-c1ccccc1C(=O)O)c1ccccc1OCCO)C(C)C
CLASSIFICATION: N

STRUCTURE_SMILES: CC(C)[Si]1(C(C)C)OCc2cc(-c3ccc(-c4ccc(Cl)c(Cl)c4)o3)nc(CCc3ccccc3)c21
CLASSIFICATION: N

STRUCTURE_SMILES: CC(C)CNC(=O)[C@@]1(C)c2ccccc2C(=O)N(Cc2cc(C(F)(F)F)cc(C(F)(F)F)c2)[C@H]1c1ccc(CO)cc1
CLASSIFICATION: N

STRUCTURE_SMILES: [N-]=[N+]=Nc1ccccc1C[C@]1(C(=O)O)N=C(c2ccc(OCCCO)cc2)O[C@H]1c1ccccc1
CLASSIFICATION: Y

---

- METHOD_SUMMARY: small-molecule microarray binders of probe aLefty2, primary screen, biochemical, biotinylated probe, 635/667 nm fluorescence (AID 1094);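 also: score merges spot fluorescence near 667 nm with spot signal-to-noise ratio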
- CONDITIONS: higher = more signal
Rule: composite z-score under -0.08 gives class 0, otherwise class 1.

MOLECULE: COCCOC(=O)N1C(=O)[C@@]2(c3cc(C#CCC(C(=O)OC)C(=O)OC)ccc31)[C@H](C(=O)NC[C@H](O)c1ccccc1)[C@H]1C(=O)O[C@H](c3ccccc3)[C@H](c3ccccc3)N1[C@@H]2c1ccc(OCCO)cc1
CLASSIFICATION: class 0
--
MOLECULE: CCOC(=O)C1=CCN(S(=O)(=O)c2ccc(C)cc2)C1c1ccccc1 (configuration not stated)
CLASSIFICATION: class 1
--
MOLECULE: C=CC[C@H](OC(=O)Nc1ccc(SC)cc1)c1ccc(OCCO)cc1
CLASSIFICATION: class 0
--
MOLECULE: CC(C)(C)OC(=O)CC[C@]1(C(=O)N2CCCCC2)COC(c2ccc(OCCCO)cc2)=N1
CLASSIFICATION: class 1
--
MOLECULE: CCOC(=O)C[C@H]1[C@H](OC(=O)c2ccc(C(=O)c3ccccc3)cc2)[C@@H](NC(=O)CC(C)C)c2cc(OCCCO)ccc2N1C(=O)Cc1ccc(OC)cc1
CLASSIFICATION: class 1
--
MOLECULE: COC(=O)[C@@]1(Cc2ccccc2CN=[N+]=[N-])N=C(c2ccc(OCCCO)cc2)O[C@H]1c1ccccc1CN=[N+]=[N-]
CLASSIFICATION: class 1
--
MOLECULE: C=CCC(OC(C)=O)[C@@H]1[C@@H](N(Cc2cc3ccccc3o2)C(=O)c2ccc(-c3ccccc3)cc2)c2cc(OCCCO)ccc2N1C(=O)Cc1ccc(OC)cc1 (some centres not stated)
CLASSIFICATION: class 1

---

Quick reference: z-score of the listed items.
- METHOD_SUMMARY: yeast growth modulation, basal conditions, primary screen, YJM789 clinical isolate, OD600, 24 h (AID 1089);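 also: growth of clinical yeast isolate S. cerevisiae YJM 789 seeded 1000 cells per well; test concentration not given here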
- CONDITIONS: S. cerevisiae YJM789 growth, higher = more signal, called active from +8 up or from −8 down

COMPOUND: COC(=O)[C@@]1(Cc2ccc(OC)cc2)[C@H]2c3cc(C(=O)N4CCCC4)n(Cc4cc(C)n(C)n4)c3C[C@H]2CN1C(=O)c1ccccc1
z-score: -0.102

COMPOUND: O=C(O)[C@@H]1C[C@@H]2C(=O)N3CCC[C@H]3C(=O)N2[C@@H]1c1cccc(OCCO)c1
z-score: -0.386

COMPOUND: CN1C(=O)[C@@]2(Cc3ccccc3)N=C(c3ccc(OCCCO)cc3)O[C@H]2c2ccccc21
z-score: -1.28

COMPOUND: C=C(C)C1CCC(C(O)C2C=CC3C(=O)N(C)C(=O)C3N2Nc2cc(OC)c(OC)c(OC)c2)CC1 (stereo not given)
z-score: 0.367

COMPOUND: C=CCNC(=O)[C@H]1[C@@H]2C(=O)O[C@@H](c3ccccc3)[C@@H](c3ccccc3)N2[C@@H](c2ccc(O)cc2)[C@]12C(=O)N(C(=O)OCCOC)c1ccc(C#CCC(C(=O)OC)C(=O)OC)cc12
z-score: 0.106

COMPOUND: COCC(=C=CC[C@@H](O)c1ccc(OCCO)cc1)CCO
z-score: 0.177

COMPOUND: CC=CC(O)C1C=CC2C(=O)NC(=O)C2N1Nc1ccccn1 (stereo not given)
z-score: 0.43

COMPOUND: CCCCCN1CC=CC23O[C@@H]4C=CCOC(=O)[C@@H]4[C@H]2C(=O)N(CCO)[C@@H]3C1=O (stereo not given in full)
z-score: 0.15

COMPOUND: [N-]=[N+]=NCc1ccccc1C[C@@]1(C(=O)N2CCCCC2)N=C(c2ccc(OCCCO)cc2)O[C@@H]1c1ccccc1CN=[N+]=[N-]
z-score: -0.364

COMPOUND: [N-]=[N+]=Nc1ccccc1[C@@H]1OC(c2ccc(OCCCO)cc2)=N[C@]1(Cc1ccccc1)C(=O)NCc1ccccc1
z-score: -1.79

COMPOUND: O=C1NC(=O)C2C1C=CC(C(O)c1ccccn1)N2Nc1ccc(Cl)cc1Cl (stereo not given)
z-score: -1.09

COMPOUND: C=CCN1C(=O)[C@]2(O[C@H](CCO)[C@@H]([Si](C)(C)c3ccc(OC)cc3)[C@@H]2C)c2cc(NC(=O)c3ccc(OC)cc3)ccc21
z-score: 0.405

COMPOUND: COC(=O)C(CC#Cc1ccc2c(c1)[C@]1(C(=O)N2)[C@H](C(=O)Nc2nc3ccccc3s2)[C@H]2C(=O)O[C@H](c3ccccc3)[C@H](c3ccccc3)N2[C@@H]1c1ccc(OCCO)cc1)C(=O)OC
z-score: -0.442

COMPOUND: O=C1[C@@H]2[C@@H](CC(COc3ccccc3)=C3[C@@H](CCc4ccccc4)OB(O)C[C@@H]32)C(=O)N1Cc1ccccc1
z-score: -0.402

COMPOUND: CC1CC/C=C\[C@H]2OC34C=CCN(C(C)(C)C)C(=O)[C@H]3N(C(CO)C(C)C)C(=O)[C@@H]4C2C(=O)O1 (stereo not given in full)
z-score: -1.38

Cited source: PubChem BioAssay
